# System: IGROV1 ovarian
# test protocol: NCI-60 one-dose screen, 48 h (100 = growth as untreated, 0 = no growth, -100 = all killed)
# test context: 10 µM unless noted
The panel holds about 83,000 compounds, 20% with a hit somewhere; the sample as a whole holds those more often.
As shown below, each of these molecules has a reported growth value.
Could you give me the number in %? Just the number is fine.

# query: growth | item FC(F)(F)c1cn(CCN2CCOCC2)c2ncnc(Cl)c12 | system: IGROV1 ovarian
13.4

# query: growth | item CC(C)C(=O)Nc1nc2c(s1)CCCc1ccn(S(=O)(=O)c3ccccc3)c1-2 | system: IGROV1 ovarian
107

# query: growth | item Nc1ncc(-c2ccc3ncnc(Nc4cncc(Cl)c4)c3c2)cn1 | system: IGROV1 ovarian
7.85

# query: growth | item O=C(Nc1ccc(-n2ccc3c(NC(=O)c4ccccc4)nccc32)cc1)Nc1ccc(Cl)c(Cl)c1 | system: IGROV1 ovarian
4.31

# query: growth | item O=C(/C=C/c1ccccc1)Oc1ccc(/C=C/c2cc(OC(=O)/C=C/c3ccccc3)cc(OC(=O)/C=C/c3ccccc3)c2)cc1 | system: IGROV1 ovarian
98.6

# query: growth | item Cc1c(F)cccc1NC(=O)c1sc2nc3c(cc2c1N)CCCCC3 | system: IGROV1 ovarian
53.7
